Items are presented alongside their recorded protein stability index.
B1: RIPK4 (parent)
chain: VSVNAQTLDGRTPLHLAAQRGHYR

variants of: B1; assay: protein stability index of a GFP-peptide fusion (GPS, HEK-293T) (PSI 1-6); higher = more stable; settings: c terminus: a fixed tail appended;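 further: lentivirally expressed fusions sorted by FACS into six bins by GFP to DsRed ratio, PSI derived from sequencing read proportions per bin multiplied by bin number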
METRIC NAME: protein stability index

VSVNAQTLDGRTPLHEAAQRGHYR [L16E] : 4.29
VSVNAQTLDGRWPLHLAAQRGHYR [T12W] : 2.82
VSVNAQTLDGRTPLHRAAQRGHYR [L16R] : 3.96
VSVNAQTLDGRTPLHLAAIRGHYR [Q19I] : 2.59
VSVNAQTLDGRTPLHSAAQRGHYR [L16S] : 4.04
VSVNAQTLDGRTPLHLAAQRGSYR [H22S] : 3.29
VSVNAQTLDGRTPLHLAAARGHYR [Q19A] : 3.44
VSVNAQTLDGRTPLHLAAQRGIYR [H22I] : 2.83
VSVNAQTLDGITPLHLAAQRGHYR [R11I] : 2.73
VSVNAQMLDGRTPLHLAAQRGHYR [T7M] : 2.98
VSVNAQTLDGRTPLHTAAQRGHYR [L16T] : 3.64
VSVNAQTLDGRTPLHLAAQEGHYR [R20E] : 3.43
VSVNAQTLDGRTPLHLAAKRGHYR [Q19K] : 3.95
VSVNAQTLDKRTPLHLAAQRGHYR [G10K] : 3.09
VSVNAWTLDGRTPLHLAAQRGHYR [Q6W] : 2.49
VSVNAQTLDGRTPLHLAEQRGHYR [A18E] : 3.13
VSVNAQTLDGRGPLHLAAQRGHYR [T12G] : 3.05
VSVNAQTLFGRTPLHLAAQRGHYR [D9F] : 2.25
VSVNAQTLDGRTPAHLAAQRGHYR [L14A] : 4.07
VSVNAQTSDGRTPLHLAAQRGHYR [L8S] : 3.5
VSVNAQTLDGRTPLHLACQRGHYR [A18C] : 2.61
VSVNAQTLDGRTPLALAAQRGHYR [H15A] : 3.79
